Data origin, for the record: patent US12209071B2

Molecular target: TrkB (Homo sapiens)
Sequence (Q16620 32-822): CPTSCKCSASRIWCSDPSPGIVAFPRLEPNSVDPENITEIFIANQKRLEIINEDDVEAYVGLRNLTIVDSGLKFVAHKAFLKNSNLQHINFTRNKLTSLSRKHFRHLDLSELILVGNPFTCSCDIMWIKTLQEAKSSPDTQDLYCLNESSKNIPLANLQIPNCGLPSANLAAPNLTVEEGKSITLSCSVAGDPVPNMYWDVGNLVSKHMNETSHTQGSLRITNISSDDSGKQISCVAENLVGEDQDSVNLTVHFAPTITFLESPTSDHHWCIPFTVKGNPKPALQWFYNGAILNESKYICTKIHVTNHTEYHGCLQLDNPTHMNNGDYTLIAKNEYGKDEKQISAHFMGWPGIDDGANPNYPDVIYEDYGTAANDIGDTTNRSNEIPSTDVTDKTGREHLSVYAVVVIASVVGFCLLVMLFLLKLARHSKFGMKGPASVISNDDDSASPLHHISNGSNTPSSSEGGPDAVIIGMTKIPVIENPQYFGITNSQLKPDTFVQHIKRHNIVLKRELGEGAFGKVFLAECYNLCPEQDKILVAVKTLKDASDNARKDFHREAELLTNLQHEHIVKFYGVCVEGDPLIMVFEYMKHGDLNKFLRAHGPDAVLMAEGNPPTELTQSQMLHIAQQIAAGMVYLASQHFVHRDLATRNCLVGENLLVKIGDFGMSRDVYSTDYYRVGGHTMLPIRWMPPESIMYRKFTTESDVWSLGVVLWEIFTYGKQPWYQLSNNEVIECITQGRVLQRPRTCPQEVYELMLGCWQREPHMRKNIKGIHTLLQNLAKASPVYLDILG
Assay: Enzyme Fragment Complementation cell-based assay, TrkB
Details: U2OS-cells over-expressing TrkB; ligand 10 ng/mL; 3 hours incubation
pEC50: −log10 of the molar value.
READOUT TYPE: pEC50

Solved entries (count: 4):
{"columns": ["COMPOUND", "TARGET OF ASSAY", "pEC50"],
 "data": [
  ["COCCOc1cc(-n2c(=O)[nH]c(=O)n(-c3ccc(Cl)cc3)c2=O)ccc1Oc1ccccc1 [Example 59]", "TrkB (Homo sapiens)", 6.34],
  ["Cc1ccc(-n2c(=O)[nH]c(=O)n(-c3ccc(Oc4ccccc4)c(C)c3)c2=O)s1 [Example 40]", "TrkB (Homo sapiens)", 6.55],
  ["Cc1ccc(-n2c(=O)[nH]c(=O)n(-c3ccc(Oc4ccccc4)c(C)c3)c2=O)cc1 [Example 41]", "TrkB (Homo sapiens)", 6.68],
  ["Cc1cc(-n2c(=O)[nH]c(=O)n(-c3ccc4occc4c3)c2=O)ccc1Oc1ccccc1 [Example 46]", "TrkB (Homo sapiens)", 6.62]
]}

(a) COCCOc1cc(-n2c(=O)[nH]c(=O)n(-c3cccc(Cl)c3)c2=O)ccc1Oc1ccccc1 [Example 58]
(b) CC(C)Oc1cc(-n2c(=O)[nH]c(=O)n(-c3ccccc3)c2=O)ccc1Oc1ccccc1 [Example 27]
(c) COc1ccc(-n2c(=O)[nH]c(=O)n(-c3ccc(Oc4ccccc4)c(OC)c3)c2=O)cc1 [Example 53]
Ordering criterion: pEC50; begin with the maximum. Your reply should list the labels following the order given in the request.
a, b, c
(a: 6.64, b: 6.43, c: 6.11)

* * *

Biological target: TrkC (Homo sapiens)
Sequence (Q16288 32-839): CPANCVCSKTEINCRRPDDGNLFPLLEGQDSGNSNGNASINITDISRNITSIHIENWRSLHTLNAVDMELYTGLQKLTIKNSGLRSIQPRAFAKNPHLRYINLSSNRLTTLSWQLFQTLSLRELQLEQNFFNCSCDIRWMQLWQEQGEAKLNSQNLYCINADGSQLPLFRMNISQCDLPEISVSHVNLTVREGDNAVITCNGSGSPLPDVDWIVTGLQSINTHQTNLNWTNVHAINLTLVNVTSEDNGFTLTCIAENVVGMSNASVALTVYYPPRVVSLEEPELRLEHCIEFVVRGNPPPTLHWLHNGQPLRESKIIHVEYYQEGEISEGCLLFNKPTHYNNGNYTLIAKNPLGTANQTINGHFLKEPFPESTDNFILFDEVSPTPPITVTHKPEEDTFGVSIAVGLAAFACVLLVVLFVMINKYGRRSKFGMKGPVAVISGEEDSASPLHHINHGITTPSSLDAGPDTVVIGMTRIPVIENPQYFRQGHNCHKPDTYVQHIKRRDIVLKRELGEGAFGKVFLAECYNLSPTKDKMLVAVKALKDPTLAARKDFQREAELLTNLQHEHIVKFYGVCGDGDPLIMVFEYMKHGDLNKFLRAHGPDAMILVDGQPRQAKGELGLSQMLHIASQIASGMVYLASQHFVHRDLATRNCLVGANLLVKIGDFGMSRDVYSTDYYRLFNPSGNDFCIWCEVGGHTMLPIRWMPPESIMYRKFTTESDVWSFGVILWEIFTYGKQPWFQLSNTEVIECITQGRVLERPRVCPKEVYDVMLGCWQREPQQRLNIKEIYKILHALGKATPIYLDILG
Experiment: Enzyme Fragment Complementation cell-based assay, TrkC
Details: U2OS-cells over-expressing TrkC; ligand 10 ng/mL; 3 hours incubation
pEC50: −log10 of the molar value.
READOUT TYPE: pEC50

{"columns": ["COMPOUND", "pEC50"],
 "data": [
  ["COCCOc1cc(-n2c(=O)[nH]c(=O)n(-c3ccc(C)cc3)c2=O)ccc1Oc1ccccc1", 6.77],
  ["COCCOc1cc(-n2c(=O)[nH]c(=O)n(-c3cccc(Cl)c3)c2=O)ccc1Oc1ccccc1", 6.74]
]}

(A) Cc1ccc(-n2c(=O)[nH]c(=O)n(-c3ccc(Oc4ccccc4)c(C)c3)c2=O)s1
(B) CCOc1cc(-n2c(=O)[nH]c(=O)n(C)c2=O)ccc1Oc1ccccc1
(C) O=c1[nH]c(=O)n(-c2ccc(Oc3ccccc3)c(OC3CCOC3)c2)c(=O)n1-c1ccccc1 (centres unmarked)
Ordering criterion: pEC50; begin with the maximum. Your reply should list the labels following the order given in the request.
A, C, B

* * *

Target: UniProtKB P04629
Sequence (P04629 33-796): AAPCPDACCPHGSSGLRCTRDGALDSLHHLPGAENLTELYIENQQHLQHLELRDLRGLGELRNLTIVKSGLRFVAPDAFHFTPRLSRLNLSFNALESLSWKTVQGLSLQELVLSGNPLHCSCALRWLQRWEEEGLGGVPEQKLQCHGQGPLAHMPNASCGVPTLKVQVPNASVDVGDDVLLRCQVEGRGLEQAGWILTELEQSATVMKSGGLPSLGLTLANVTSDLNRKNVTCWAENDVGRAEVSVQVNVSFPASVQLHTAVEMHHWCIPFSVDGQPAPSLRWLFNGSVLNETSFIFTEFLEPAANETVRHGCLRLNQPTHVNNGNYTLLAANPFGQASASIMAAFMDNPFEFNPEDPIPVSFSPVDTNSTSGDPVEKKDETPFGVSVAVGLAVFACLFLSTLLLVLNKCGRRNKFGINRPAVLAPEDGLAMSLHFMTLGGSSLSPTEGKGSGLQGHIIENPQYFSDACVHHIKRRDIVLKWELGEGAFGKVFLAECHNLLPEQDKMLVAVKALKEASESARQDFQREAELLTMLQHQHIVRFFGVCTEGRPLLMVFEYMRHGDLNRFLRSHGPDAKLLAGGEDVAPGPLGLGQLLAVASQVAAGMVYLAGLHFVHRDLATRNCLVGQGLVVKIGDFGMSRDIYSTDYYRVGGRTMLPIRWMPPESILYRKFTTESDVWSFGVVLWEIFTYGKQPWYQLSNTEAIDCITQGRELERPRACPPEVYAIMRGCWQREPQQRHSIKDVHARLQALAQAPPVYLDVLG
Test: Enzyme Fragment Complementation cell-based assay, TrkA
Conditions: U2OS-cells over-expressing TrkA; ligand 10 ng/mL; 3 hours incubation
pEC50: −log10 of the molar value.
READOUT TYPE: pEC50

Solved entries (count: 7):
{"columns": ["COMPOUND", "READOUT TYPE", "RECORDED NUMBER"],
 "data": [
  ["COCCOc1cc(-n2c(=O)[nH]c(=O)n(C)c2=O)ccc1Oc1ccccc1 [Example 28]", "pEC50", 6.00],
  ["Cc1cn(Cc2ccccc2)c2ccc(-n3c(=O)[nH]c(=O)n(-c4ccccc4)c3=O)cc12 [Example 36]", "pEC50", 6.02],
  ["O=c1[nH]c(=O)n(-c2ccc3c(cnn3-c3ccccc3)c2)c(=O)n1-c1ccccc1 [Example 19]", "pEC50", 6.09],
  ["O=c1[nH]c(=O)n(-c2ccc(Oc3ccccc3)c(Cl)c2)c(=O)n1-c1ccccc1 [Example 39]", "pEC50", 5.85],
  ["COc1cccc(-n2c(=O)[nH]c(=O)n(-c3ccc(Oc4ccccc4)c(C)c3)c2=O)c1 [Example 50]", "pEC50", 6.51],
  ["Cc1cc(-n2c(=O)[nH]c(=O)n(-c3ccc(F)cc3)c2=O)ccc1Oc1ccccc1 [Example 45]", "pEC50", 6.33],
  ["Cc1cc(-n2c(=O)[nH]c(=O)n(-c3ccc4occc4c3)c2=O)ccc1Oc1ccccc1 [Example 46]", "pEC50", 6.32]
]}

(P) CCOc1cc(-n2c(=O)[nH]c(=O)n(-c3ccccc3)c2=O)ccc1Oc1ccccc1 [Example 16]
(Q) O=c1[nH]c(=O)n(-c2ccc(Oc3ccccc3)c(Br)c2)c(=O)n1-c1ccccc1 [Example 69]
Of P and Q , which carries the smaller reported pEC50 figure? Could you answer with the label of the item you picked?
P
(P: 6.41, Q: 6.66)
